FYI, the data here is from patent US9688764B2.

Record form. Attribute: T½. Fill in for each entry.
# System: mfPRLR.mmh (monomeric macaca fascicularis PRLR)
# Sequence (as listed by the source): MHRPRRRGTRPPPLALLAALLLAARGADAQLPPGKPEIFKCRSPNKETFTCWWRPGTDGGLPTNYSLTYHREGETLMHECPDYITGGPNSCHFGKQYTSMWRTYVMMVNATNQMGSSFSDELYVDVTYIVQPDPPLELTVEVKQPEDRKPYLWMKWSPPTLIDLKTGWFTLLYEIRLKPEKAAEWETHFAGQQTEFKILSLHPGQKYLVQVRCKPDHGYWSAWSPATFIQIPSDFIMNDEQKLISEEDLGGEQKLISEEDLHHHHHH
# Test description: Surface plasmon resonance (Biacore T200), mAb-capture format
# Type: binding
# Test settings: 25° C., antibody-capture format, analyte mfPRLR.mmh
Return type: number; implicit unit min.

Query :: Using the record for H1H6804P: anti-PRLR antibody, human IgG1 Fc; HCVR/LCVR SEQ ID NOs 242/250 (antibody, V domains shown, human IgG1 Fc) VH: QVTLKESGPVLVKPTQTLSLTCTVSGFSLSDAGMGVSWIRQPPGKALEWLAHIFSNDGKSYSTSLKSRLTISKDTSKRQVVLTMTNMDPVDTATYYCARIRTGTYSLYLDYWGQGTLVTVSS VL: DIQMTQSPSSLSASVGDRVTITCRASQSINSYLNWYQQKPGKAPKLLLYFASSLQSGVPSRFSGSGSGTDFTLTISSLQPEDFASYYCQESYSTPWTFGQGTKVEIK , report its T½.
Result :: 18

Query :: Using the record for H1H6801P: anti-PRLR antibody, human IgG1 Fc; HCVR/LCVR SEQ ID NOs 210/218 (antibody, V domains shown, human IgG1 Fc) VH: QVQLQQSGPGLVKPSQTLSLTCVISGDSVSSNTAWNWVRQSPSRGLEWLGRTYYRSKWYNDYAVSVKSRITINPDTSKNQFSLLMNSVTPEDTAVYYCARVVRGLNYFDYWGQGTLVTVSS VL: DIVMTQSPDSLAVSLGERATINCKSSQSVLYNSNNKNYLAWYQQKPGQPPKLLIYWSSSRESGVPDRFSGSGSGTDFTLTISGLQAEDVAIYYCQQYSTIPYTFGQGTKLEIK , report its T½.
Result :: 9

Query :: Using the record for H1H6774P: anti-PRLR antibody, human IgG1 Fc; HCVR/LCVR SEQ ID NOs 34/42 (antibody, V domains shown, human IgG1 Fc) VH: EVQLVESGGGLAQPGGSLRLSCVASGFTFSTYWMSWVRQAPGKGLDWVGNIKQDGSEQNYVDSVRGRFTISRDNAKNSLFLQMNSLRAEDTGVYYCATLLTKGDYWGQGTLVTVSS VL: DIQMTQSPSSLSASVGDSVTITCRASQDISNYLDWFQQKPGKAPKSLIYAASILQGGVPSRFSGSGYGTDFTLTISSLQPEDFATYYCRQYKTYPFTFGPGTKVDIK , report its T½.
Result :: 13

Query :: Using the record for H1H6975N: human IgG1 Fc form of H2M6975N; anti-PRLR; HCVR/LCVR SEQ ID NOs 370/378 (antibody, V domains shown, human IgG1 Fc) VH: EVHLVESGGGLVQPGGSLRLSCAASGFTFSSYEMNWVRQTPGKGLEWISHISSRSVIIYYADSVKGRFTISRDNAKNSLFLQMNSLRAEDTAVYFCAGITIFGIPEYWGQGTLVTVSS VL: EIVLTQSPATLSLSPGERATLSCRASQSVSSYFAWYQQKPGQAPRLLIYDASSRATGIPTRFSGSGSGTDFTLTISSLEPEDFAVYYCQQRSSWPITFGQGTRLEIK , report its T½.
Result :: 88.2

Query :: Using the record for H1H6781P: anti-PRLR antibody, human IgG1 Fc; HCVR/LCVR SEQ ID NOs 50/58 (antibody, V domains shown, human IgG1 Fc) VH: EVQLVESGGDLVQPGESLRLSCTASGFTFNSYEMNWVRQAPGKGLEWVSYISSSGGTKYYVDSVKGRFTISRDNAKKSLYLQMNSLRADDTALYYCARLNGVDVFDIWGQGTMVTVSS VL: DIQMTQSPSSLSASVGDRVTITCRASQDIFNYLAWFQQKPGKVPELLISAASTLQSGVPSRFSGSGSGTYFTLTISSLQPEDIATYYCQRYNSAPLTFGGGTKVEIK , report its T½.
Result :: 82

Query :: Using the record for H1H6958N2: human IgG1 Fc form of H2M6958N2; anti-PRLR, receptor blocking; HCVR/LCVR SEQ ID NOs 290/298 (antibody, V domains shown, human IgG1 Fc) VH: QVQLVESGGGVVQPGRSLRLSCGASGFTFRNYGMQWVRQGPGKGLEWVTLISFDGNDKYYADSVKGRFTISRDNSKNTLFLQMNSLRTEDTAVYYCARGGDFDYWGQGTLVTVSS VL: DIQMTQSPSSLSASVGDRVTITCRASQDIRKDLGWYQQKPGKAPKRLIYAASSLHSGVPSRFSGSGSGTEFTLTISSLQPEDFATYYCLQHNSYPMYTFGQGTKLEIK , report its T½.
Result :: 41.3

Query :: Using the record for H1H6765P: anti-PRLR antibody, human IgG1 Fc; HCVR/LCVR SEQ ID NOs 18/26 (antibody, V domains shown, human IgG1 Fc) VH: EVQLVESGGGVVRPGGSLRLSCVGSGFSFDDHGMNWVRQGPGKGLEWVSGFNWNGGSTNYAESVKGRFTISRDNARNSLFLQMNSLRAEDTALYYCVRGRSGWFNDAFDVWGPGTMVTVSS VL: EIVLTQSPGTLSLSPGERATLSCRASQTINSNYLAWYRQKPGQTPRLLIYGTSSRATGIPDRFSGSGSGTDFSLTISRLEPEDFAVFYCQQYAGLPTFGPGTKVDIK , report its T½.
Result :: 86

Query :: Using the record for H1H6795P: anti-PRLR antibody, human IgG1 Fc; HCVR/LCVR SEQ ID NOs 162/170 (antibody, V domains shown, human IgG1 Fc) VH: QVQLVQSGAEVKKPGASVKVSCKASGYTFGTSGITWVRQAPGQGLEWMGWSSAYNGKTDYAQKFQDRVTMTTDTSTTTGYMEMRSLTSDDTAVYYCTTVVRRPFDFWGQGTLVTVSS VL: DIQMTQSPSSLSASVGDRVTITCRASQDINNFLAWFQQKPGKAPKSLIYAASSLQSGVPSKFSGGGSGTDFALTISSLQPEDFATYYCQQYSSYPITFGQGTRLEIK , report its T½.
Result :: 6
